# Test system: Trypanosoma brucei
# METHOD_SUMMARY: DNDI: Inhibition of Human African Trypanosomiasis, SBRI 427, in vitro at 2 ug.mL-1
# Format: functional
Screen size: about 4,400 compounds; about 390 (8.9%) showed an effect of 50% or more. Many of the other results were omitted from the sample, so strong results are more common in it than they were.
Would you mind labelling by % inhibition? At or over 20% is True, under is False.

>  <COMPOUND>
Cc1ccc(/C(=N/O)N2Cc3ccccc3C2)c(Oc2cccc(C(C)C)c2)n1

>  <ASSIGNED_CLASS>
False

$$$$
>  <COMPOUND>
O/N=C(/c1ccc(Oc2ccc(-n3ccnc3)cc2)nc1)N1CC=CC1

>  <ASSIGNED_CLASS>
False

$$$$
>  <COMPOUND>
CCC(CC)N/C(=N\O)c1cccnc1Oc1ccc(C)c2c1CCC2

>  <ASSIGNED_CLASS>
True

$$$$
>  <COMPOUND>
Cc1ccc(Oc2ncccc2/C(=N/O)N2CCC3CCCCC3C2)c2c1CCC2 (configuration not stated)

>  <ASSIGNED_CLASS>
False

$$$$

Here is the next item to consider.
## Task Does CCOc1ccccc1-c1nc(CNCCC2=CCCCC2)co1 have a reported % inhibition of at least 20%?
## Result True

* * *

% inhibition values, listed per item
# System: Trypanosoma brucei
# METHOD_SUMMARY: DNDI: Inhibition of Human African Trypanosomiasis, SBRI 427, in vitro at 2 ug.mL-1
# Type: functional
About 390 (8.9%) of roughly 4,400 compounds showed an effect of 50% or more. Only a selection was taken, and strong results are over-represented in it overall.
Express it in %; write the number only.

Some solved cases for reference:
>  <COMPOUND>
C#CC(CC)(CC)NCc1coc(-c2cccs2)n1

>  <EXPERIMENTAL_VALUE>
-2

$$$$
>  <COMPOUND>
Oc1ccc(-c2nc(CN3CCN(Cc4ccccc4)CC3)co2)cc1

>  <EXPERIMENTAL_VALUE>
18

$$$$
>  <COMPOUND>
O/N=C(/c1ccc(Oc2cccc3ccccc23)nc1)N1CCCCCC1

>  <EXPERIMENTAL_VALUE>
25

$$$$

## Task Hello, I am looking for reported % inhibition with Trypanosoma brucei for CCN(Cc1ccncc1)Cc1coc(-c2cccc3ccccc23)n1 . Could you help?
## Result 27

## Task Query FC(F)(F)c1cccc(N2CCN(Cc3coc(-c4cccc5ccccc45)n3)CC2)c1 next
## Result 6

## Task Query Cc1ccc(/C(=N/O)NCc2ccco2)c(Oc2ccc(F)cc2)n1 next
## Result 22

## Task Query c1ccc(-c2cn(Cc3coc(-c4cccc5ccccc45)n3)cn2)cc1 next
## Result -1

* * *

% inhibition values, listed per item
# Test system: Trypanosoma brucei
# METHOD_SUMMARY: DNDI: Inhibition of Human African Trypanosomiasis, SBRI 427, in vitro at 2 ug.mL-1
# Format: functional
Among all 4,400 compounds or so, about 390 (8.9%) showed an effect of 50% or more. What follows is part of a selection rich in strong results, with near analogues and random picks from the rest.
Express it in %; write the number only.

Some solved cases for reference:
>  <MOLECULE>
CCCCCC(C)NCc1coc(-c2ccccc2OCC)n1 (configuration not stated)

>  <UNITS_TEXT>
%

>  <% inhibition>
99

$$$$
>  <MOLECULE>
Oc1ccc(-c2nc(CNCc3ccccc3)co2)cc1

>  <UNITS_TEXT>
%

>  <% inhibition>
1

$$$$

## Task Looking for the measured % inhibition of CCCCN(CCC#N)Cc1coc(-c2ccc(O)cc2)n1 , can you help?
## Result -26

## Task Query Cc1ccc(Oc2nc(C)ccc2/C(=N/O)N2CCN(C)CC2)cc1 next
## Result 19

## Task Query Cc1cccc(Oc2ncccc2/C(=N/O)NC2CCC(C)CC2)c1C (configuration not stated) next
## Result 20
